- System: HRV 71
- experiment description: Cytopathic effect (CPE) inhibition assay
- Format: cell-based, human rhinovirus
- condition set: Human rhinovirus sp., 72 h; host cell HeLa, 3 days, MEM/2% FBS, MTT assay; read-out: EC50 HRV 71
recorded metric: EC50

CC(C)c1ccc2c(c1)OC1(O)c3ccccc3C(=O)C21NC(=O)C(=O)CCc1ccccc1 (stereo not shown)    > 9.5 µg/mL
COc1ccc(/C=C/C(=O)C(=O)NC23C(=O)c4ccccc4C2(O)Oc2cc(C(C)C)ccc23)cc1OC (stereo not shown)    > 10 µg/mL
CC(C)c1ccc2c(c1)OC1(O)c3ccccc3C(=O)C21NC(=O)C(=O)CC(=O)c1ccncc1 (stereo not shown)    > 10 µg/mL
CCC(C)C(=O)C(=O)NC12C(=O)c3ccccc3C1(O)Oc1cc(C(C)C)ccc12 (stereo not shown)    > 10 µg/mL
CCCNC(=O)OC12C(=O)c3ccccc3C1(O)Oc1cc(C(C)C)ccc12 (stereo not shown)    > 10 µg/mL
COc1cc(C(=O)C(=O)NC23C(=O)c4cccc([N+](=O)[O-])c4C2(O)Oc2cc(C(C)C)ccc23)cc(OC)c1OC (stereo not shown)    > 10 µg/mL
CCOC(=O)C(=O)NC12C(=O)c3cccc([N+](=O)[O-])c3C1(O)Oc1cc(C(C)C)ccc12 (stereo not shown)    > 10 µg/mL
CCOC(=O)C(=O)NC12C(=O)c3c(N)cccc3C1(O)Oc1cc(C(C)C)ccc12 (stereo not shown)    > 10 µg/mL
CC(C)c1ccc2c(c1)OC1(O)c3ccccc3C(=O)C21NC(=O)CN (stereo not shown)    > 10 µg/mL
CC(C)c1ccc2c(c1)OC1(O)c3cccc(N)c3C(=O)C21NC(=O)C(=O)N(C)C (stereo not shown)    73 µg/mL
CC(C)CC(=O)C(=O)NC12C(=O)c3c(N)cccc3C1(O)Oc1cc(C(C)C)ccc12 (stereo not shown)    > 10 µg/mL
CC(C)c1ccc2c(c1)OC1(O)c3ccccc3C(=O)C21NC(=O)C(=O)c1ccco1 (stereo not shown)    > 10 µg/mL
CC(C)c1ccc2c(c1)OC1(O)c3ccccc3C(=O)C21N/C(=N\C(=O)OC(C)(C)C)NC(=O)OC(C)(C)C (stereo not shown)    > 10 µg/mL
CCNC(=O)OC12C(=O)c3ccccc3C1(OC)Oc1cc(C(C)C)ccc12 (stereo not shown)    > 10 µg/mL
CC(C)c1ccc2c(c1)OC1(O)c3ccccc3C(=O)C21OC(=O)NCCNC(=O)OC(C)(C)C (stereo not shown)    > 10 µg/mL
CC(C)c1ccc2c(c1)OC1(O)c3ccccc3C(=O)C21NC(=O)CNC(=O)OC(C)(C)C (stereo not shown)    > 10 µg/mL
CC(C)c1ccc2c(c1)OC1(O)c3ccccc3C(=O)C21NC(=O)C(=O)CBr (stereo not shown)    > 10 µg/mL
Cc1cc2c(cc1C)C1(NC(=O)C(=O)c3c[nH]c4ccccc34)C(=O)c3ccccc3C1(O)O2 (stereo not shown)    > 8.41 µg/mL
CC(C)c1ccc2c(c1)OC1(O)c3cccc(N)c3C(=O)C21NC(=O)C(=O)c1c[nH]c2ccccc12 (stereo not shown)    > 4.89 µg/mL
CC(=O)C(=O)NC12C(=O)c3ccccc3C1(O)Oc1cc(C(C)C)ccc12 (stereo not shown)    > 9.02 µg/mL
CCCC(=O)C(=O)NC12C(=O)c3c(N)cccc3C1(O)Oc1cc(C(C)C)ccc12 (stereo not shown)    > 10 µg/mL
CC(C)c1ccc2c(c1)OC1(O)c3ccccc3C(=O)C21NC(=O)C(=O)c1cccs1 (stereo not shown)    > 8.57 µg/mL
CC(=O)C(=O)NC12C(=O)c3cccc([N+](=O)[O-])c3C1(O)Oc1cc(C(C)C)ccc12 (stereo not shown)    > 10 µg/mL
CC(C)c1ccc2c(c1)OC1(O)c3cccc(N)c3C(=O)C21NC(=O)C(=O)c1ccccc1 (stereo not shown)    > 7.82 µg/mL
CCC(C)C(=O)C(=O)NC12C(=O)c3c(N)cccc3C1(O)Oc1cc(C(C)C)ccc12 (stereo not shown)    > 10 µg/mL
Cc1cc(C)c(C(=O)C(=O)NC23C(=O)c4c(N)cccc4C2(O)Oc2cc(C(C)C)ccc23)c(C)c1 (stereo not shown)    > 8.6 µg/mL
CC(C)c1ccc2c(c1)OC1(O)c3c(cccc3[N+](=O)[O-])C(=O)C21NC(=O)C(=O)CCc1ccccc1 (stereo not shown)    > 4.8 µg/mL
CC(C)c1ccc2c(c1)OC1(O)c3ccccc3C(=O)C21NC(=O)C(=O)N1CCN(C)CC1 (stereo not shown)    > 10 µg/mL
CC(C)c1ccc2c(c1)OC1(O)c3c(cccc3[N+](=O)[O-])C(=O)C21NC(=O)C(=O)c1c[nH]c2ccccc12 (stereo not shown)    > 10 µg/mL
CC(C)c1ccc2c(c1)OC1(O)c3ccccc3C(=O)C21NC(N)=S (stereo not shown)    > 10 µg/mL
CC(C)c1ccc2c(c1)OC1(O)c3ccccc3C(=O)C21NC#N (stereo not shown)    > 10 µg/mL

###

- experiment description: Cytotoxicity (CC50) in multicycle CPE reduction assay, MTS
- condition set: human
recorded metric: CC50 at 3 days

CSCCC(=O)C(=O)NC12C(=O)c3ccccc3C1(O)Oc1cc(C(C)C)ccc12 (centres unmarked) [Example 17]    > 10 µg/mL
CC(C)c1ccc2c(c1)OC1(O)c3ccccc3C(=O)C21NC(=O)C(=O)c1ccccc1 (centres unmarked) [Example 15]    8.8 µg/mL
CC(=O)C(=O)NC12C(=O)c3cccc([N+](=O)[O-])c3C1(O)Oc1cc(C(C)C)ccc12 (centres unmarked) [Example 19]    > 10 µg/mL
CCOC(=O)C(=O)NC12C(=O)c3c(N)cccc3C1(O)Oc1cc(C(C)C)ccc12 (centres unmarked) [Example 36]    > 10 µg/mL
CCCCCCC(=O)C(=O)NC12C(=O)c3cccc([N+](=O)[O-])c3C1(O)Oc1cc(C(C)C)ccc12 (centres unmarked) [Example 35]    > 10 µg/mL
COc1ccc(/C=C/C(=O)C(=O)NC23C(=O)c4ccccc4C2(O)Oc2cc(C(C)C)ccc23)cc1OC (centres unmarked) [Example 24]    > 10 µg/mL
CC(C)c1ccc2c(c1)OC1(O)c3cccc(N)c3C(=O)C21NC(=O)C(=O)N(C)C (centres unmarked) [Example 31]    > 10 µg/mL
CC(C)c1ccc2c(c1)OC1(O)c3cccc(N)c3C(=O)C21NC(=O)C(=O)c1ccccc1 (centres unmarked) [Example 11]    8.72 µg/mL

###

- experiment description: in vitro
- condition set: human
recorded metric: CC50

CSCCC(=O)C(=O)NC12C(=O)c3ccccc3C1(O)Oc1cc(C(C)C)ccc12 (stereo not shown)    > 10 µg/mL
COc1cc(C(=O)C(=O)NC23C(=O)c4ccccc4C2(O)Oc2cc(C(C)C)ccc23)cc(OC)c1OC (stereo not shown)    > 10 µg/mL
CC(C)c1ccc2c(c1)OC1(O)c3ccccc3C(=O)C21NC(=O)CN (stereo not shown)    > 10 µg/mL
CNC(=O)C(=O)NC12C(=O)c3ccccc3C1(O)Oc1cc(C(C)C)ccc12 (stereo not shown)    > 10 µg/mL
CCOC(=O)C(=O)NC12C(=O)c3ccccc3C1(O)Oc1cc(C(C)C)ccc12 (stereo not shown)    > 10 µg/mL
CC(=N)NC12C(=O)c3ccccc3C1(O)Oc1cc(C(C)C)ccc12 (stereo not shown)    > 10 µg/mL
CCCC(=O)C(=O)NC12C(=O)c3ccccc3C1(O)Oc1cc(C(C)C)ccc12 (stereo not shown)    8.49 µg/mL
CCC(C)C(=O)C(=O)NC12C(=O)c3cccc([N+](=O)[O-])c3C1(O)Oc1cc(C(C)C)ccc12 (stereo not shown)    > 10 µg/mL
CC(C)c1ccc2c(c1)OC1(O)c3ccccc3C(=O)C21NC(=O)C(=O)c1ccccc1 (stereo not shown)    8.72 µg/mL
CCCCCCC(=O)C(=O)NC12C(=O)c3ccccc3C1(O)Oc1cc(C(C)C)ccc12 (stereo not shown)    8.57 µg/mL

###

Reported CC50 at 3 days values for the following compounds.
- experiment description: Cytotoxicity (CC50) in multicycle CPE reduction assay, MTS
- condition set: human
recorded metric: CC50 at 3 days

CCC(C)C(=O)C(=O)NC12C(=O)c3cccc([N+](=O)[O-])c3C1(O)Oc1cc(C(C)C)ccc12 (stereo not shown) [Example 28]    > 10 µg/mL
CCCC(=O)C(=O)NC12C(=O)c3c(N)cccc3C1(O)Oc1cc(C(C)C)ccc12 (stereo not shown) [Example 52]    > 10 µg/mL
Cc1cccc(C)c1NC(=O)C(=O)NC12C(=O)c3cccc([N+](=O)[O-])c3C1(O)Oc1cc(C(C)C)ccc12 (stereo not shown) [Example 26]    > 10 µg/mL
COc1cc(C(=O)C(=O)NC23C(=O)c4cccc([N+](=O)[O-])c4C2(O)Oc2cc(C(C)C)ccc23)cc(OC)c1OC (stereo not shown) [Example 58]    > 10 µg/mL
CC(=O)C(=O)NC12C(=O)c3ccccc3C1(O)Oc1cc(C)c(C)cc12 (stereo not shown) [Example 14]    8.57 µg/mL
Cc1cc2c(cc1C)C1(NC(=O)C(=O)c3c[nH]c4ccccc34)C(=O)c3ccccc3C1(O)O2 (stereo not shown) [Example 13]    8.31 µg/mL
CCCC(=O)C(=O)NC12C(=O)c3ccccc3C1(O)Oc1cc(C(C)C)ccc12 (stereo not shown) [Example 5]    > 10 µg/mL

// provenance: patent US9951058B2
